Measured TGI by item
# Test system: MDA-MB-231 breast
# experiment.notes: NCI tumour cell line growth inhibition, 48 h
Where a SMILES comes first, the peptide text is derived from it. [ ]: non-standard residue; d: D form. Ava = NCCCCC(=O)O; Mpa = O=C(O)CCS

>>> result("Nc1nc(N)nc(CCCCc2nc(N)nc(N)n2)n1")
"> 100 µM"
>>> result("CC(NC(=O)CCS)C(=O)NC(C)C(=O)NC(Cc1c[nH]c2ccccc12)C(=O)NC(Cc1c[nH]cn1)C(=O)NC(CO)C(=O)NC(Cc1c[nH]c2ccccc12)C(=O)NCCCCC(=O)NC(C)C(=O)NC(CCC(N)=O)C(=O)NC(CCCCN)C(=O)NC(C)C(=O)NC(CCCNC(=N)N)C(=O)NC(CCCCN)C(N)=O (centres undefined) ([Mpa]AAWHSW[Ava]AQKARK-NH2; configuration not given here)")
"> 100 µM"
>>> result("CC(=O)C1=C(C)N(c2ccccc2)C2(O)C3=C(C(=O)c4ccccc4C3=O)C(O)=CC12Cl (centres undefined)")
"> 100 µM"

Ask | Give its TGI value. Item: CN(C)N1C(=O)C(=O)N(c2cccc3ccccc23)C1=O
Reply | > 10 µM

* * *

Measured TGI by item
# Tested on: MOLT-4 leukemia
# experiment.notes: NCI tumour cell line growth inhibition, 48 h

Completed entries (count: 2):
>>> result("CCC1(CC)C(=O)NC(=O)NC1=S")
"> 100 µM"
>>> result("CC1OC(NCCNCCNC2OC(C)C(O)C(O)C2O)C(O)C(O)C1O (stereo not drawn)")
"> 100 µM"

Ask | Give its TGI value. Item: Cc1cc(NC(=O)NCCOc2ccc(N3C(N)=NC(N)=NC3(C)C)cc2Cl)ccc1S(=O)(=O)F
Reply | > 100 µM

Ask | Give its TGI value. Item: O=C(CSSCC(=O)c1ccc(Cl)cc1)c1ccc(Cl)cc1
Reply | > 100 µM

Ask | Give its TGI value. Item: O=C(O)CCCN1C(=O)/C(=C/C(Cl)=C/c2ccccc2)SC1=S
Reply | 11.9 µM

Ask | Give its TGI value. Item: CC(C)(C)OC(=O)NC(CSCc1ccc(C(=O)c2ccccc2)cc1)C(=O)N1CCN(CCCCN2c3ccccc3Sc3cc(N=[N+]=[N-])ccc32)CC1 (stereo not drawn)
Reply | > 100 µM

Ask | Give its TGI value. Item: COc1ccc(-c2cc(=O)c3c(O)c(O)c(OC)cc3o2)cc1O
Reply | > 100 µM

Ask | Give its TGI value. Item: CCOC(CBr)OC1C(=O)OCC1(C)C (stereo not drawn)
Reply | > 100 µM

* * *

# Tested on: OVCAR-8 ovarian
# experiment.notes: NCI tumour cell line growth inhibition, 48 h
measurement.label: TGI

Completed entries (count: 8):
>>> result("CC(O)C(CO)NC(=O)C1CSSCC(NC(=O)C(N)Cc2ccccc2)C(=O)NC(Cc2ccccc2)C(=O)NC(Cc2c[nH]c3ccccc23)C(=O)NC(CCCCN)C(=O)NC(C(C)O)C(=O)N1 (centres undefined)")
"> 100 µM"
>>> result("Nc1cc(CO)cc(Nc2c3ccccc3nc3ccccc23)c1")
"29.5 µM"
>>> result("COc1ccc(C2=C(OC(C)=O)c3cccn3-c3ccc(Cl)cc3S2)cc1")
"> 10 µM"
>>> result("COC(=O)[C@@]12CSC[C@]1(C(=O)OC)N[C@@H](c1ccccc1O)C2")
"> 100 µM"
>>> result("O=[N+]([O-])c1ccc(Sc2cccc[n+]2[O-])c2nonc12")
"> 67.6 µM"
>>> result("COC(=O)C1(Cc2ccc3c(c2)CCC3)Cc2ccc3c(c2C1=O)CCC3 (centres undefined)")
"> 100 µM"
>>> result("CC(C)(C)OC(=O)NC(CSCc1ccc(C(=O)c2ccccc2)cc1)C(=O)N1CCN(CCCCN2c3ccccc3Sc3cc(N=[N+]=[N-])ccc32)CC1 (centres undefined)")
"> 100 µM"
>>> result("CCC1(O)C(=O)OCc2c1cc1n(c2=O)Cc2cc3cc4c(cc3nc2-1)OCO4 (centres undefined)")
"1.29 µM"

Ask | Give its TGI value. Item: CC1=CC(=O)NP(=O)(Oc2ccc(Cl)cc2)N1 (centres undefined)
Reply | > 100 µM

Ask | Give its TGI value. Item: O=C(CSSCC(=O)c1ccc(Cl)cc1)c1ccc(Cl)cc1
Reply | 23.2 µM

Ask | Give its TGI value. Item: O=[N+]([O-])c1ccc2c(c1)nc1n2C(c2c(F)cccc2F)SC1 (centres undefined)
Reply | > 100 µM

Ask | Give its TGI value. Item: Nc1cc(OCC2CCCCC2)nc(N)n1
Reply | > 100 µM

Ask | Give its TGI value. Item: CCCC(=O)OCC1OC(n2cc(F)c(=O)[nH]c2=O)CC1OC(=O)CCC (centres undefined)
Reply | > 10 µM

Ask | Give its TGI value. Item: CC1(Cl)C(=O)NC(=O)N([C@H]2C[C@H](O)[C@@H](CO)O2)C1N=[N+]=[N-] (some centres undefined)
Reply | > 100 µM
